Each entry below lists one item and its recorded pKd value.
system name: Tiam2 PDZ domain (Mus musculus)
Sequence (Q6ZPF3 908-997 limits assumed): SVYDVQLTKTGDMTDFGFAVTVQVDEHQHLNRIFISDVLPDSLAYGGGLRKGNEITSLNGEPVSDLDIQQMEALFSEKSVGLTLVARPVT
Peptide text beside a SMILES is read from it. * marks the point of attachment. Dansyl = CN(C)c1cccc2c(S(=O)(=O)*)cccc12
Would you please state pKd, meaning minus log10 of the concentration in mol/L, as a bare number?

C[C@H](NC(=O)[C@H](C)NC(=O)[C@H](Cc1ccc(O)cc1)NS(=O)(=O)c1cccc2c(N(C)C)cccc12)C(=O)N[C@@H](CCCCN)C(=O)N[C@@H](C)C(=O)N[C@@H](Cc1ccccc1)C(=O)N[C@@H](CCCNC(=N)N)C(=O)N[C@@H](Cc1ccccc1)C(=O)O [Tiam1 peptide 3 (Group II)] (Dansyl-YAAKAFRF-OH) = 5.11
CC[C@H](C)[C@H](NC(=O)[C@H](CC(C)C)NC(=O)[C@H](C)NC(=O)[C@H](C)NC(=O)[C@H](Cc1ccc(O)cc1)NS(=O)(=O)c1cccc2c(N(C)C)cccc12)C(=O)N[C@@H](Cc1c[nH]cn1)C(=O)N[C@@H](CCCCN)C(=O)N[C@@H](Cc1ccccc1)C(=O)O [Tiam2 peptide 3 (Group II)] (Dansyl-YAALIHKF-OH) = 4.54

Proceed to the following item.
Query for Tiam2 PDZ domain (Mus musculus): what pKd does the record show for C[C@H](NC(=O)[C@H](Cc1ccc(O)cc1)NC(=O)[C@H](Cc1ccccc1)NC(=O)[C@H](CCC(=O)O)NC(=O)[C@H](CCC(=O)O)NC(=O)[C@H](CCC(N)=O)NC(=O)[C@H](CCCCN)NC(=O)[C@@H](NS(=O)(=O)c1cccc2c(N(C)C)cccc12)[C@@H](C)O)C(=O)O [Syndecan1] (Dansyl-TKQEEFYA-OH) ? 3.70

----------
Reported Kd values, Tiam1 PDZ domain (wild-type) (Homo sapiens, UniProt Q13009).
Peptide text beside a SMILES is read from it. * marks the point of attachment. Dansyl = CN(C)c1cccc2c(S(=O)(=O)*)cccc12

Solved cases (3 shown):
C[C@H](NC(=O)[C@H](C)NC(=O)[C@H](Cc1ccc(O)cc1)NS(=O)(=O)c1cccc2c(N(C)C)cccc12)C(=O)NCC(=O)N[C@@H](CCCNC(=N)N)C(=O)N[C@@H](CCCCN)C(=O)N[C@@H](Cc1c[nH]cn1)C(=O)N[C@@H](Cc1ccccc1)C(=O)O [Tiam2 peptide 2 (Group II)] (Dansyl-YAAGRKHF-OH) = > 250 µM
C[C@H](NC(=O)[C@H](Cc1c[nH]c2ccccc12)NC(=O)[C@H](Cc1ccc(O)cc1)NC(=O)[C@H](CCCCN)NC(=O)[C@H](CCC(=O)O)NC(=O)[C@H](C)NC(=O)[C@H](C)NC(=O)[C@H](Cc1ccc(O)cc1)NS(=O)(=O)c1cccc2c(N(C)C)cccc12)C(=O)O [Tiam1 peptide 2 (Group I)] (Dansyl-YAAEKYWA-OH) = 90.3 µM
C[C@H](NC(=O)[C@H](C)NC(=O)[C@H](Cc1ccc(O)cc1)NS(=O)(=O)c1cccc2c(N(C)C)cccc12)C(=O)N[C@@H](CCCCN)C(=O)N[C@@H](C)C(=O)N[C@@H](Cc1ccccc1)C(=O)N[C@@H](CCCNC(=N)N)C(=O)N[C@@H](Cc1ccccc1)C(=O)O [Tiam1 peptide 3 (Group II)] (Dansyl-YAAKAFRF-OH) = 200 µM

Record CC(C)[C@H](NC(=O)[C@H](Cc1ccc(O)cc1)NC(=O)[C@@H](NC(=O)[C@H](CCCNC(=N)N)NC(=O)[C@H](CCCCN)NC(=O)[C@H](C)NC(=O)[C@H](C)NC(=O)[C@H](Cc1ccc(O)cc1)NS(=O)(=O)c1cccc2c(N(C)C)cccc12)[C@@H](C)O)C(=O)O [Tiam2 peptide 1 (Group I)] (Dansyl-YAAKRTYV-OH) : what is its Kd with Tiam1 PDZ domain (wild-type) (Homo sapiens, UniProt Q13009)? > 250 µM

Under Tiam1 PDZ domain (wild-type) (Homo sapiens, UniProt Q13009): Kd value of C[C@H](NC(=O)[C@H](CCCNC(=N)N)NC(=O)[C@H](Cc1ccc(O)cc1)NC(=O)[C@H](CCCNC(=N)N)NC(=O)[C@H](Cc1ccc(O)cc1)NC(=O)[C@H](C)NC(=O)[C@H](C)NC(=O)[C@H](Cc1ccc(O)cc1)NS(=O)(=O)c1cccc2c(N(C)C)cccc12)C(=O)O [Tiam1 peptide 1 (Group I)] (Dansyl-YAAYRYRA-OH) ? > 250 µM

Identify the measured Kd of CC[C@H](C)[C@H](NC(=O)[C@H](CC(C)C)NC(=O)[C@H](C)NC(=O)[C@H](C)NC(=O)[C@H](Cc1ccc(O)cc1)NS(=O)(=O)c1cccc2c(N(C)C)cccc12)C(=O)N[C@@H](Cc1c[nH]cn1)C(=O)N[C@@H](CCCCN)C(=O)N[C@@H](Cc1ccccc1)C(=O)O [Tiam2 peptide 3 (Group II)] (Dansyl-YAALIHKF-OH) for Tiam1 PDZ domain (wild-type) (Homo sapiens, UniProt Q13009). > 250 µM
